Provenance of the data: patent US20070105790A1

Test system: A549 Sentinel Line
METHOD_NOTES: Sentinel Line beta-galactosidase reporter assay (A549)
Format: cell-based
EXPERIMENTAL_CONDITIONS: Sentinel Lines, 40 hrs, FIG. 6
REPORTED_PROPERTY: reporter activity

{"columns": ["LINE_NOTATION", "OBSERVED_RESULT"],
 "data": [
  ["CC(=O)O[C@H]1C(=O)[C@@]2(C)[C@H]([C@H](OC(=O)c3ccccc3)[C@]3(O)C[C@H](OC(=O)[C@H](O)[C@@H](NC(=O)c4ccccc4)c4ccccc4)C(C)=C1C3(C)C)[C@]1(OC(C)=O)CO[C@@H]1C[C@@H]2O", "increases"],
  ["N.N.O=C([O-])C1(C(=O)[O-])CCC1.[Pt+2]", "increases"],
  ["O=C1c2c(O)ccc(O)c2C(=O)c2c(NCCNCCO)ccc(NCCNCCO)c21", "increases"]
]}
